Entries and their measured apparent KD of K4 kissing-loop reporter follow.
# System: K4 kissing-loop RNA reporter;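 further: bound reporter read as fluorescence of individual clusters on recovered sequencing chips by microscopy, with normalized cluster intensities fitted with a binding model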
# procedure.summary: apparent KD of K4 kissing-loop reporter; higher = weaker reporter binding
# run.parameters: Eterna round: R107; input ligand: none

{"macromolecule.sequence": "AGAUUCGACACGGCCGCCACUUCCAGUGGUCGGUGUCAUGGUGCACAUGAGUGAUGUUCAUGUGGAAGGACCGGGUGUUGAGUCU [KL-XTryp-B3 #analogue]", "apparent KD of K4 kissing-loop reporter": "103 nM"}
{"macromolecule.sequence": "GGAGCAGUGAUGUUGCUUGUAAUGCAUUCAGAGGAUAUUCGUUUGGGAAGAAGGCUGAAUCGUUCUUCGAGUGAUGUUCGAGGAU [Same State FMN A GF 16]", "apparent KD of K4 kissing-loop reporter": "156 nM"}
{"macromolecule.sequence": "UAAUCCUAAUGAUAAUAAUCAAGUGGUGGACGAGGACCGGUACGGCCGCCACUCGAAAAUGCAGUGAUGUUGUAAUACGGAUAAU [Exclusion - Tryptophan A (Freestyle 3)]", "apparent KD of K4 kissing-loop reporter": "372 nM"}
